Recorded inhibition at 1 µM by entry
# targetOrSystem: ABHD6 (Mus musculus, UniProt Q8R2Y0)
# Construct: Proteomes (mouse brain membrane fraction or cell lysates); from tissue; host or cells: mouse brain membrane fraction (or cell lysates, not specified)
# Sequence (Q8R2Y0 whole entry): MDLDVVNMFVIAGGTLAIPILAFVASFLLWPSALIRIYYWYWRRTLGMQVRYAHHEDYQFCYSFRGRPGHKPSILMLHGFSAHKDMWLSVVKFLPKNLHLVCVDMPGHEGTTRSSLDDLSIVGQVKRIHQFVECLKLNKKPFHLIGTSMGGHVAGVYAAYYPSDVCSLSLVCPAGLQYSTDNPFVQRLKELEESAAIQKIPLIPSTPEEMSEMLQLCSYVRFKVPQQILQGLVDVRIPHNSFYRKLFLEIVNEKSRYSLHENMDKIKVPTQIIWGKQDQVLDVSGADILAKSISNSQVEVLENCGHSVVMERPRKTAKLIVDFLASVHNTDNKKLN
# methodSummary: In vitro competitive activity-based protein profiling (gel-based, FP-Rh or HT-01 probe)
# Format: biochemical
# conditionsUsed: 1 μM inhibitor; read-out: % Inhibition at 1 μM, C = ABHD6
# Method: In Vitro Competitive Activity-Based Protein Profiling. Proteomes (mouse brain membrane fraction or cell lysates) (50 μL, 1.0 mg/mL total protein concentration) were preincubated with varying concentrations of inhibitors at 37° C. […] Following gel imaging, serine hydrolase activity was determined by measuring fluorescent intensity of gel bands corresponding to MAGL, ABHD6, FAAH, and PLA2G7 using ImageJ 1.43u software.
attributeMeasured: inhibition at 1 µM

[[record]]
molecule = "O=C(c1cnn(C(=O)N2CCN(Cc3ccc4c(c3)OCO4)CC2)c1)N1CCCC1"
attributemeasured = "inhibition at 1 µM"
result = "> 75%"

[[record]]
molecule = "CC(C)(C)OC(=O)N1CCCN(C(=O)n2cc(C#N)cn2)CC1"
attributemeasured = "inhibition at 1 µM"
result = "> 75%"

[[record]]
molecule = "CCN(Cc1cccc(N2CCOCC2)c1)C(=O)n1cc(C#N)cn1"
attributemeasured = "inhibition at 1 µM"
result = "25 to 75%"


---

# targetOrSystem: MAGL (Mus musculus)
# Construct: Proteomes (mouse brain membrane fraction or cell lysates); from tissue; host or cells: mouse brain membrane fraction (or cell lysates, not specified)
# methodSummary: In vitro competitive activity-based protein profiling (gel-based, FP-Rh or HT-01 probe)
# Format: biochemical
# conditionsUsed: 10 μM inhibitor
Recorded inhibition at 10 µM by entry
attributeMeasured: inhibition at 10 µM

[[record]]
molecule = "CC(=O)N(C)CCN(C)C(=O)n1cc(Cl)cn1"
result = "< 25%"

[[record]]
molecule = "COC(=O)c1cnn(C(=O)N2CCN(Cc3ccc4ccccc4c3)CC2)c1"
result = "> 75%"

[[record]]
molecule = "CC(=O)N1CCN(C(=O)n2cc(C)cn2)CC1"
result = "< 25%"

[[record]]
molecule = "O=C(c1cnn(C(=O)N2CCN(C(c3ccc(Cl)cc3)c3ccc(Cl)cc3)CC2)c1)N1CCOCC1"
result = "> 75%"

[[record]]
molecule = "O=C(c1cnn(C(=O)N2CCN(Cc3cncnc3)CC2)c1)N1CCCCC1"
result = "< 25%"

[[record]]
molecule = "Cc1cnn(C(=O)N2CCN(Cc3ccc(Oc4ccccc4)cc3)CC2)c1"
result = "> 75%"

[[record]]
molecule = "O=C(N1CCN(Cc2ccc3ccccc3c2)CC1)n1cccn1"
result = "> 75%"


---

# targetOrSystem: MAGL (Mus musculus, UniProt O35678)
# Construct: Proteomes (mouse brain membrane fraction or cell lysates); from tissue; host or cells: mouse brain membrane fraction (or cell lysates, not specified)
# Sequence (O35678 whole entry): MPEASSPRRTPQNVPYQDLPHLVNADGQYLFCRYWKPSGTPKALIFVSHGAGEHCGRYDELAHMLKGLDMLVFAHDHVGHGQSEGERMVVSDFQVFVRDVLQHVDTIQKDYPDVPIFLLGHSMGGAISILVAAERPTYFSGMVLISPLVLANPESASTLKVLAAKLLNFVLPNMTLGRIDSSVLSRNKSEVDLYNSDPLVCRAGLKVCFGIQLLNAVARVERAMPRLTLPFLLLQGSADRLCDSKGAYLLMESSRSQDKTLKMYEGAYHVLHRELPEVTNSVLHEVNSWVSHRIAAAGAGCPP
# methodSummary: In vitro competitive activity-based protein profiling (gel-based, FP-Rh or HT-01 probe)
# Format: biochemical
# conditionsUsed: 1 μM inhibitor
attributeMeasured: inhibition at 1 µM

[[record]]
compound = "CS(=O)(=O)N1CCN(C(=O)n2cc(C#N)cn2)CC1 [Example 174]"
result = "< 25%"

[[record]]
compound = "O=C(c1ccccc1)N1CCN(C(=O)n2cc(C(F)(F)F)cn2)CC1 [Example 153]"
result = "> 75%"

[[record]]
compound = "O=C(c1cnn(C(=O)N2CCN(Cc3cncnc3)CC2)c1)N1CCCCC1 [Example 75]"
result = "< 25%"


---

# targetOrSystem: FAAH (Mus musculus, UniProt O08914)
# Construct: Proteomes (mouse brain membrane fraction or cell lysates); from tissue; host or cells: mouse brain membrane fraction (or cell lysates, not specified)
# Sequence (O08914 whole entry): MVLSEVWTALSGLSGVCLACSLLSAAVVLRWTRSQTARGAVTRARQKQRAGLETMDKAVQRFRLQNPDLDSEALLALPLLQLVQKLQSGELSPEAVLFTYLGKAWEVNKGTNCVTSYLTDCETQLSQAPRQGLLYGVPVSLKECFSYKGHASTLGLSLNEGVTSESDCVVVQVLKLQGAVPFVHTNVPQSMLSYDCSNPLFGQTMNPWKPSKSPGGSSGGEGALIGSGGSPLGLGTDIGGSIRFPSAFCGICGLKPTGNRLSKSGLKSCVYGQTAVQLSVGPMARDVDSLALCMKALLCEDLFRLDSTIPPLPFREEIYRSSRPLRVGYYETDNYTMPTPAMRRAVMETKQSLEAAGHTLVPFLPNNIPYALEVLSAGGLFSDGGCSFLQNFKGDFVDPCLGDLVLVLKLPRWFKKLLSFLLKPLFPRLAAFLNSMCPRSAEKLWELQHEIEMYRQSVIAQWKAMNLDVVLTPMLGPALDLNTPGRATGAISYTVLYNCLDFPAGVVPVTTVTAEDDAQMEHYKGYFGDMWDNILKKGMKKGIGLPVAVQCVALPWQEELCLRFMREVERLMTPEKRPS
# methodSummary: In vitro competitive activity-based protein profiling (gel-based, FP-Rh or HT-01 probe)
# Format: biochemical
# conditionsUsed: mouse brain membrane fraction or cell lysates, 30 min preincubation at 37° C.; read-out: Mouse (IC50 value, nM) FAAH
# Procedure: In Vitro Competitive Activity-Based Protein Profiling. Proteomes (mouse brain membrane fraction or cell lysates) (50 μL, 1.0 mg/mL total protein concentration) were preincubated with varying concentrations of inhibitors at 37° C. […] Following gel imaging, serine hydrolase activity was determined by measuring fluorescent intensity of gel bands corresponding to MAGL, ABHD6, FAAH, and PLA2G7 using ImageJ 1.43u software.
attributeMeasured: IC50

[[record]]
molecule = "O=C(c1ccccc1)N1CCCN(C(=O)n2cc(C(F)(F)F)cn2)CC1"
result = "> 1000 nM"

[[record]]
molecule = "N#Cc1cnn(C(=O)N2CCN(Cc3ccc(OCc4ccccc4)cc3)CC2)c1"
result = "< 100 nM"

[[record]]
molecule = "O=C(N1CCCCC1)n1cc(C(F)(F)F)cn1"
result = "100 to 1000 nM"

[[record]]
molecule = "O=C(c1cnn(C(=O)N2CCN(C(c3ccc(Cl)cc3)c3ccc(Cl)cc3)CC2)c1)N1CCCCC1"
result = "> 1000 nM"

[[record]]
molecule = "CCN(Cc1cccc(C)c1)C(=O)n1cc(Cl)cn1"
result = "100 to 1000 nM"

[[record]]
molecule = "O=C(N1CCN(C(c2ccc(Cl)cc2)c2ccc(Cl)cc2)CC1)n1cccn1"
result = "> 1000 nM"

[[record]]
molecule = "O=C(N1CCN(Cc2ccc(Cl)cc2N2CCC3(CCOCC3)C2)CC1)n1cc(Cl)cn1"
result = "> 1000 nM"

[[record]]
molecule = "COc1cccc(CN2CCN(C(=O)n3cc(C(F)(F)F)cn3)CC2)c1"
result = "< 100 nM"

[[record]]
molecule = "O=C(N1CCN(Cc2ccccc2F)CC1)n1cc(C(F)(F)F)cn1"
result = "< 100 nM"


---

Recorded inhibition at 1 µM by entry
# targetOrSystem: PLA2G7 (Mus musculus, UniProt Q60963)
# Construct: Proteomes (mouse brain membrane fraction or cell lysates); from tissue; host or cells: mouse brain membrane fraction (or cell lysates, not specified)
# Sequence (Q60963 22-440): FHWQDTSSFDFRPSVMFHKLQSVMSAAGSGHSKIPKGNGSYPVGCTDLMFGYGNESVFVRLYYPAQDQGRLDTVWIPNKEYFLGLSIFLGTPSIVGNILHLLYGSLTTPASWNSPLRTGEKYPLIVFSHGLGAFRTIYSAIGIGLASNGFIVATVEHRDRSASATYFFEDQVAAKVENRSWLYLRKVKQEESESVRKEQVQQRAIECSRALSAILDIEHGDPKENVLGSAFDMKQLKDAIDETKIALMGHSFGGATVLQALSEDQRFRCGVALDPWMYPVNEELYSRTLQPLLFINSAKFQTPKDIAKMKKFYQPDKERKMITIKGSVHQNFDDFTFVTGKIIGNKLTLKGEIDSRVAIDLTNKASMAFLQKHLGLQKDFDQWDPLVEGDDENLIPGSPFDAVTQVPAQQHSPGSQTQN
# methodSummary: In vitro competitive activity-based protein profiling (gel-based, FP-Rh or HT-01 probe)
# Format: biochemical
# conditionsUsed: 1 μM inhibitor; gel-based competitive ABPP; read-out: % Inhibition at 1 μM, D = PLA2G7
attributeMeasured: inhibition at 1 µM

[[record]]
molecule = "CCN(Cc1ccc(N2CCOCC2)cc1)C(=O)n1cc(C#N)cn1"
result = "< 25%"

[[record]]
molecule = "N#Cc1cnn(C(=O)N2CCN(Cc3ccc(C(=O)N4CCCCC4)cc3F)CC2)c1"
result = "> 75%"

[[record]]
molecule = "O=C(N1CCN(Cc2cccc(N3CCCC3)c2)CC1)n1cc(C(F)(F)F)cn1"
result = "> 75%"

[[record]]
molecule = "CCN(Cc1ccc(Cl)cc1)C(=O)n1cc(C(F)(F)F)cn1"
result = "< 25%"

[[record]]
molecule = "O=C(N1CCN(Cc2ccccc2C(F)(F)F)CC1)n1cc(C(F)(F)F)cn1"
result = "> 75%"

[[record]]
molecule = "N#Cc1cnn(C(=O)N2CCN(Cc3cccc(Oc4ccccc4)c3)CC2)c1"
result = "< 25%"

[[record]]
molecule = "CCN(Cc1ccc(N2CCOCC2)cc1)C(=O)n1cc(Cl)cn1"
result = "< 25%"

[[record]]
molecule = "O=C(N1CCN(Cc2cccc(C(F)(F)F)c2)CC1)n1cc(C(F)(F)F)cn1"
result = "> 75%"

[[record]]
molecule = "O=C(N1CCN(Cc2cccc(N3CCOCC3)c2)CC1)n1cc(C(F)(F)F)cn1"
result = "> 75%"

[[record]]
molecule = "COc1cc(-c2ccccc2)ccc1CN1CCN(C(=O)n2cc(C(=O)N3CCCC3)cn2)CC1"
result = "< 25%"

[[record]]
molecule = "N#Cc1cnn(C(=O)N2CCN(Cc3ccc(C(=O)N4CCC4)cc3F)CC2)c1"
result = "> 75%"

[[record]]
molecule = "Cc1ccccc1CN1CCN(C(=O)n2cc(C(F)(F)F)cn2)CC1"
result = "> 75%"

[[record]]
molecule = "CCN(Cc1ccc(C)cc1)C(=O)n1cc(C(F)(F)F)cn1"
result = "< 25%"

[[record]]
molecule = "Cc1cnn(C(=O)NCc2ccc(OCc3ccccc3)cc2)c1"
result = "< 25%"

[[record]]
molecule = "O=C(N1CCN(Cc2ccccc2N2CCOCC2)CC1)n1cc(C(F)(F)F)cn1"
result = "> 75%"

